Just for reference, patent US20230037815A1 is where these values come from.

- Experimental target: T1, human serum albumin (human, UniProt P02768 25-609)
- T1 construct: also called HSA
- Protocol details: Octet HTX (ForteBio), HCAb on AHC sensor, 1:1 fit
Reported property: pKd
pKd field: float, defined as -log10 of concentration (mol/L).

Known results for binders:
binder="CNG-HSA-112 (VHH) VHH: KVQLLESGGGLVQPGGSLRLSCAASGFTFPSFGMSWVRQAPGKGLEWVSSISGSGSDTLYADSVKGRFTISRDNAKTTLYLQMNSLRPEDTAVYYCTIGGSVSKSSRGTLVTVSS" reported_property=pKd observed_measurement=8.07
binder="CNG-HSA-104 (VHH) VHH: KVQLLESGGGLVQPGGSLRLSCAASGFTFHSFGMSWVRQAPGKGLEWVSSISGSGSDTLYADSVKGRFTISRDNSKNTLYLQMNSLRPEDTAVYYCTIGGSLSRSSQGTLVTVSS" reported_property=pKd observed_measurement=8.11
binder="CNG-HSA-115 (VHH) VHH: KVQLVESGGGLVQPGNSLRLSCAASGFTFSSFGMGWVRQAPGKGLEWVSSISGSGSDTLYAPSVKGRFTISRDNSKNTLYLQMNSLRPEDTAVYYCTFAGSLSRSSQGTLVTVSS" reported_property=pKd observed_measurement=8.53
binder="CNG-HSA-119 (VHH) VHH: KVQLVESGGGLVQPGNSLRLSCAASGFTFSSFGMSWVRQAPGKGLEWVSSISGSGSDALYADSAKGRFTISRDNAKTTLYLQMNSLRAEDTAVYYCTIGGSLSPSSQGTLVTVSS" reported_property=pKd observed_measurement=8.13
binder="CNG-HSA-114 (VHH) VHH: KVQLVESGGGLVQPGNSLRLSCAASGFTFSSFGMSWVRQAPGKGLEWVSSISGSGSDTLTADSVKGRFTISRDNSKNTLYLQMNSLRAEDTAVYYCTIGGSLVRSSQGTLVTVSS" reported_property=pKd observed_measurement=7.83
binder="CNG-HSA-113 (VHH) VHH: GVQLLESGGGLVQPGGSLRLSCAASGFTFSSFGMSWVRQAPGKGLEWVSSISGTGSDTLYADSVKGRFTISRDNSKNTLYLQMNSLRPEDTAVYYCTIGGSLRYSSQGTLVTVSS" reported_property=pKd observed_measurement=7.81

Q. Return value of pKd for input CNG-HSA-120 (VHH) VHH: KVQLVESGGGLVQPGGSLRLSCAASGFTFSSFGMSWVRQAPGKGPEWVSSISGSGSDTLYADSVKGRFTISRDNSKNTLYLQMNSLRPEDTAVYYCTIGGSLKQSSQGTLVTVSS , no commentary.
A. 8.50

Q. Please list pKd recorded for the binder CNG-HSA-105 (VHH) VHH: EVQLLESGGGLVQPGGSLRLSCAASGFVFSSFGMSWVRQAPGKGLEWVSSISGSGSDTLYADSVKGRFTISRDNSKNTLYLQMNSLRPEDTAVYYCTIGGSLSRSSQGTLVTVSS
A. 7.82

Q. Provide measured pKd value, entry: CNG-HSA-109 (VHH) VHH: KVQLVESGGGLVQPGNSLRLSCAASGFTFGSFGMSWVRQAPGKGPEWVSSISGSGSDTLYADSVKGRFTISRDNSKNTLYLQMNSLRPEDTAVYYCTIGGSLSRSSQGTLVTVSS
A. 8.46

Q. In one line, give reported pKd of the entry CNG-HSA-110 (VHH) VHH: KVQLVESGGGLVQPGNSLRLSCAASGFTFSSFGMSWVRQAPGKGLEWVSSISGSGGDTLYADSAKGRFTISRDNSKNTLYLQMNSLRPEDTAVYYCTIGGSLSRSSQGTLVTVSS .
A. 8.24

Q. Specify measured pKd for CNG-HSA-108 (VHH) VHH: KVQLVESGGGLVQPGGSLRLSCAASGFTFGSFGMSWVRQAPGKGLEWVSSISGSGADTLYADSVKGRFTISRDNSKNTLYLQMNSLRAEDTAVYYCTIGGSLRASSQGTLVTVSS .
A. 8.21

Q. Return pKd (reported value) for this binder: CNG-HSA-117 (VHH) VHH: KVQLVESGGGLVQPGNSLRLSCAASGFTFSSFGMSWVRQAPGKGLEWVSSISGSGSDTLYADSVKGRFTISRDNSKNTLYLQMNSLRAEDTAVYYCTIGGSLTRSSQGTLVTVSS
A. 8.25

Q. For the binder CNG-HSA-106 (VHH) VHH: KVQLLESGGGLVQPGGSLRLSCAASGFTFSSFGMSWVRQAPGKGLEWVSSISGSGSDTLYADSVRGRFTISRDNSKNTLYLQMDSLRAEDTAVYYCTIGGSRSISSQGTLVTVSS , report pKd.
A. 7.77

Q. Read off the recorded pKd for CNG-HSA-116 (VHH) VHH: KVQLVESGGGLVQPGGSLRLSCAASGFTFSSFGMSWVRQAPGKGPEWVSSISGSGSDTLYADSVKGRFTISRDNSKNTLYLQMNSLRAEDTAVYYCTIGGSLRASSQGTLVTVSS
A. 8.33
